Hey, just so you know, these numbers are from PubChem BioAssay (NCI).

System: RXF-631 renal
Assay method text: NCI tumour cell line growth inhibition, 48 h
I'd appreciate it if you could supply TGI values for the items below.

1) COc1ccc(OC)c(NC(=O)C(=O)C(C(C)=O)c2nc3ccc(Cl)cc3[nH]c2=O)c1 (stereo unspecified)    > 50 µM
2) CN(C)CCC(=O)N1C/C(=C/c2ccccc2)C(=O)/C(=C\c2ccccc2)C1    10.6 µM
3) COC1C(CN[N+](=O)CC2OC3OC(C)(C)OC3C2OC)OC2OC(C)(C)OC21 (stereo unspecified)    > 100 µM

Your task in this section: give TGI for each listed record.
1. COc1ccc(C2Oc3c(cc(O)c(OC)c3C)[C@@H]2C)cc1OC (stereo partly specified)
2. COC(=O)C(=O)C(C(=O)C=C(C)C)C(=O)C(=O)Nc1cc(C(F)(F)F)ccc1Cl (stereo unspecified)
3. COc1ccc2cc1Oc1ccc(cc1)CC1c3cc(c(OC)cc3CCN1C)Oc1c3c(cc4c1C(C2)N(C)CC4)OCO3 (stereo unspecified)

1. > 100 µM
2. > 100 µM
3. 36 µM

###

Heads up, these compounds all have GI50 values measured for K-562 leukemia.

1) CCCCC/C(C=C(C#N)C#N)=C/c1ccccc1    3800 nM
2) O=C(Nc1ccc(N2CCNCC2)cc1)c1[nH]ncc1Nc1cc(Oc2ccccc2)ncn1    2220 nM
3) O=C1OCc2c1cc1ccc(O)c(OC3OC(CO)C(O)C(O)C3O)c1c2-c1ccc2c(c1)OCO2 (stereo not drawn)    39500 nM
4) COc1ccc(C2=NN(C(=O)c3cc(OC)c(OC)c(OC)c3)C(c3ccc(C#N)cc3)C2)cc1OC (stereo not drawn)    889 nM

Your task in this section: give GI50 for each listed record.
1. CCNCCNc1cc(-c2ccc(C(=O)OC)cc2)c(C#N)c2nc3ccccc3n12
2. Cc1ccc2c(c1)C(=O)/C(=C/c1ncc([N+](=O)[O-])n1C)O2
3. CCCCC(=O)OCC1OC(n2cnc3c(=S)nc[nH]c32)C(OC(=O)CCCC)C1OC(=O)CCCC (stereo not drawn)
4. Cc1ccc(-c2c3c([nH]c(=O)c2C#N)-c2cc(F)ccc2OC3)cc1
5. O=C1/C(=C/c2ccc(Cl)cc2Cl)N=C(c2ccccc2)N1Cc1ccco1
6. O=C(CI)NC1Oc2ccccc2-c2oc(=O)c(-c3ccccc3)cc21 (stereo not drawn)
7. C[C@]12CC[C@H](O)CC1=CC[C@@H]1[C@@H]2CC[C@]2(C)C(c3cccnc3)=CC[C@@H]12
8. N#CSCC1CC(O)(c2ccccc2)C(c2ccccc2)C(c2ccc(Cl)cc2)O1 (stereo not drawn)

1: 1230 nM; 2: 598 nM; 3: 2030 nM; 4: 86400 nM; 5: 41100 nM; 6: 1320 nM; 7: 3990 nM; 8: 1370 nM

Kindly note the recorded GI50 for "CN(C)CCNc1cc(-c2ccccc2)nc2ccccc12" , which is 2600 nM

###

Test system: MDA-N
Assay method text: NCI tumour cell line growth inhibition, 48 h
I'd appreciate it if you could supply TGI values for the items below.

1) CC(C)=CCOC(=O)C(C)=[N+]=[N-]    > 100 µM
2) NC(=O)N/N=C(\Cc1nc2ccc(Cl)cc2[nH]c1=O)C(=O)Nc1ccc(Cl)cc1Cl    > 100 µM

Please examine the following record next.
Kindly note the recorded TGI for CN1C(=O)N(c2ccccc2)C2(CCN(CC3COc4ccccc4O3)CC2)C1=O (stereo not drawn) , which is > 100 µM
